B1: HDV Ribozyme (parent)
chain: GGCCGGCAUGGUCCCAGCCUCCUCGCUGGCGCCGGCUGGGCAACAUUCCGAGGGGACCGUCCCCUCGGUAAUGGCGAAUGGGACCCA

# Variants of: B1
# assay_protocol: self-cleavage, relative activity (ratio to wild type); higher = more cleavage; co-transcriptional

[
  {
    "mutation": "G34A C63G",
    "self-cleavage": 0.133
  },
  {
    "mutation": "A8U G67A",
    "self-cleavage": 0.855
  },
  {
    "mutation": "C7A A77G",
    "self-cleavage": 0.107
  },
  {
    "mutation": "G10U U46A",
    "self-cleavage": 0.489
  },
  {
    "mutation": "G68U A83C",
    "self-cleavage": 0.538
  },
  {
    "mutation": "A42G A78C",
    "self-cleavage": 0.107
  },
  {
    "mutation": "U37A G55A",
    "self-cleavage": 0.283
  },
  {
    "mutation": "C7G G76C",
    "self-cleavage": 0.151
  },
  {
    "mutation": "G82U",
    "self-cleavage": 0.41
  },
  {
    "mutation": "G2C G53C",
    "self-cleavage": 0.125
  },
  {
    "mutation": "C18A A77C",
    "self-cleavage": 0
  },
  {
    "mutation": "U23G C33A",
    "self-cleavage": 0
  },
  {
    "mutation": "G55U U60C",
    "self-cleavage": 1.11
  },
  {
    "mutation": "U60G C61A",
    "self-cleavage": 1.11
  },
  {
    "mutation": "G38A A71U",
    "self-cleavage": 0.102
  },
  {
    "mutation": "C13G U72A",
    "self-cleavage": 0.0536
  },
  {
    "mutation": "C18U G50U",
    "self-cleavage": 0.639
  },
  {
    "mutation": "G11A C32G",
    "self-cleavage": 0.0683
  },
  {
    "mutation": "G10A C84A",
    "self-cleavage": 0.562
  },
  {
    "mutation": "U60C A83G",
    "self-cleavage": 0.707
  },
  {
    "mutation": "C3G A43G",
    "self-cleavage": 0.125
  },
  {
    "mutation": "A45U A70G",
    "self-cleavage": 0.808
  }
]
